Cited source: paper PMC6264553

# system.under.test: Protein Tyrosine Kinase (PTK)
# assay.explanation: PTK inhibitory activity, ELISA tyrosine kinase assay with poly-Glu-Tyr substrate
# Assay type: biochemical, rat
# condition.set: tyrosine kinase extracted from rat brain tissue; means of three experiments; NA = not active at 5 μg/mL; read-out: Protein Tyrosine Kinase (PTK) inhibition activity, IC50
reported.property: IC50 (µM)
Unit µM implied. Number only.

Query: What does the data say about its IC50? Entry: O=C(c1ccco1)c1cc(O)c(O)c(O)c1Cl [Compound 22c]
Response: 4.62

Query: What does the data say about its IC50? Entry: O=C(c1ccc(O)c(O)c1)c1ccc(Br)o1 [Compound 8c]
Response: 2.72

Query: What does the data say about its IC50? Entry: O=C(c1ccco1)c1cc(Br)c(Br)c(O)c1O [Compound 22d]
Response: 9.56

Query: What does the data say about its IC50? Entry: O=C(c1ccc(O)c(O)c1)c1ccco1 [Compound 4a]
Response: 4.66

Query: What does the data say about its IC50? Entry: O=C(c1ccc(Br)o1)c1ccc(O)c(O)c1O [Compound 8a]
Response: 5.31

Query: What does the data say about its IC50? Entry: O=C(c1ccco1)c1cccc(O)c1O [Compound 18a]
Response: 13.2

Query: What does the data say about its IC50? Entry: O=C(c1ccco1)c1c(O)cccc1O [Compound 18b]
Response: 12.7

Query: What does the data say about its IC50? Entry: O=C(c1ccco1)c1ccc(O)c(O)c1O [Compound 4b]
Response: 6.42

###

What melting point was measured for each of the following?

Query: What does the data say about its melting point? Entry: COc1cc(C(=O)c2ccco2)c(Cl)c(OC)c1OC [Compound 21c]
Response: 80 to 82 °C

Query: What does the data say about its melting point? Entry: O=C(c1ccc(O)c(Br)c1)c1ccco1 [Compound 22a]
Response: 100 to 102 °C

Query: What does the data say about its melting point? Entry: O=C(c1ccco1)c1c(Br)c(O)c(O)c(O)c1Br [Compound 22b]
Response: 148 to 150 °C

Query: What does the data say about its melting point? Entry: `O=C(c1ccc(O)c(O)c1)c1ccco1`
Response: 132 to 134 °C

Query: What does the data say about its melting point? Entry: `O=C(c1ccco1)c1cc(Br)ccc1O`
Response: 88 to 90 °C

Query: What does the data say about its melting point? Entry: O=C(c1ccco1)c1cccc(O)c1O [Compound 18a]
Response: 64 to 66 °C

Query: What does the data say about its melting point? Entry: `COc1ccc(C(=O)c2ccco2)cc1OC`
Response: 98 to 100 °C

Query: What does the data say about its melting point? Entry: `O=C(c1ccc(O)c(O)c1)c1cc(Br)c(Br)o1`
Response: 184 to 186 °C

Query: What does the data say about its melting point? Entry: `COc1ccc(C(=O)c2cc(Br)c(Br)o2)cc1O`
Response: 107 to 109 °C

Query: What does the data say about its melting point? Entry: `O=C(c1ccc(Br)o1)c1cc(Br)ccc1O`
Response: 82 to 84 °C

Query: What does the data say about its melting point? Entry: COc1c(Br)c(C(=O)c2ccco2)c(Br)c(OC)c1OC [Compound 21b]
Response: 96 to 98 °C

###

reported.property: melting point

Query: What does the data say about its melting point? Entry: `COc1ccc(C(=O)c2ccco2)c(OC)c1O`
Response: 168 to 170 °C

Query: What does the data say about its melting point? Entry: `COc1ccc(Br)cc1C(=O)c1ccc(Br)o1`
Response: 98 to 100 °C

Query: What does the data say about its melting point? Entry: `COc1ccc(C(=O)c2ccco2)cc1`
Response: 58 to 60 °C

Query: What does the data say about its melting point? Entry: O=C(c1ccco1)c1cc(Br)c(Br)c(O)c1O [Compound 22d]
Response: 138 to 140 °C

Query: What does the data say about its melting point? Entry: O=C(c1ccco1)c1cc(O)c(O)c(O)c1Cl [Compound 22c]
Response: 150 to 152 °C

Query: What does the data say about its melting point? Entry: `COc1ccc(Br)cc1C(=O)c1ccco1`
Response: 66 to 70 °C

Query: What does the data say about its melting point? Entry: COc1c(O)c(C(=O)c2ccco2)cc(Br)c1Br [Compound 21d]
Response: 102 to 104 °C

Query: What does the data say about its melting point? Entry: COc1cccc(OC)c1C(=O)c1ccco1 [Compound 17b]
Response: 64 to 66 °C

Query: What does the data say about its melting point? Entry: `O=C(c1ccc(Br)o1)c1ccc(O)c(O)c1O`
Response: 132 to 134 °C

Query: What does the data say about its melting point? Entry: O=C(c1ccco1)c1c(O)cccc1O [Compound 18b]
Response: 66 to 68 °C
